- testedTarget: STING WT: His-TVMV-S-hSTING(155-341)-H232R (Homo sapiens, UniProt Q86WV6, H232R)
- Construct: His-TVMV-S-hSTING(155-341)-H232R
- Sequence (Q86WV6 with tags, fused parts or gaps H232R): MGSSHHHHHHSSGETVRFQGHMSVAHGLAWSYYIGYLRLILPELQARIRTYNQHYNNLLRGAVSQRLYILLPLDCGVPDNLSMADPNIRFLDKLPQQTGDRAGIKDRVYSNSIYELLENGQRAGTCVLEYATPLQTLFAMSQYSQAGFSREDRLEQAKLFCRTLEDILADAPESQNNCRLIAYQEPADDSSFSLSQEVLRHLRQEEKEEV
- testDetails: STING HTRF binding assay, STING WT
- assayConditions: 20 nM His-tagged STING cytoplasmic domain, 200 nM fluorescein-labeled cGAMP analog probe, one hour; read-out: HTRF Binding Assays IC50 (μM) STING WT
This section presents compounds with their documented log10 IC50 values.
endpointName: log10 IC50 (log10 of the value in µM)

- compound: "Nc1ncnc2c1ncn2[C@@H]1O[C@@H]2COP(O)(=S)O[C@@H]3[C@H](O)[C@@H](COP(O)(=S)O[C@H]2[C@H]1F)O[C@H]3C#Cc1ccccc1 (single isomer, unassigned) [Example 2-3]"
  log10 IC50: 1.31
- compound: "Nc1ncnc2c1ncn2[C@@H]1O[C@@H]2COP(O)(=S)O[C@@H]3[C@H](O)[C@@H](COP(O)(=S)O[C@H]2[C@H]1F)O[C@H]3C#Cc1cccnc1 (single isomer, unassigned) [Example 3-2]"
  log10 IC50: 0.53
- compound: "C#C[C@@H]1O[C@@H]2COP(O)(=S)O[C@H]3[C@@H](F)[C@H](n4cnc5c(N)ncnc54)O[C@@H]3COP(O)(=S)O[C@@H]1[C@@H]2O (single isomer, unassigned) [Example 1-3]"
  log10 IC50: 1.74
- compound: "Nc1ncnc2c1ncn2[C@@H]1O[C@@H]2COP(O)(=S)O[C@@H]3[C@H](O)[C@@H](COP(O)(=S)O[C@H]2[C@H]1F)O[C@H]3C#Cc1ccccc1 (single isomer, unassigned) [Example 2-2]"
  log10 IC50: 0.98
- compound: "Nc1ncnc2c1ncn2[C@@H]1O[C@@H]2COP(O)(=S)O[C@@H]3[C@H](O)[C@@H](COP(O)(=S)O[C@H]2[C@H]1F)O[C@H]3C#Cc1cccnc1 (single isomer, unassigned) [Example 3-4]"
  log10 IC50: 1.47
- compound: "C#C[C@@H]1O[C@@H]2COP(=O)(S)O[C@H]3[C@@H](F)[C@H](n4cnc5c(N)ncnc54)O[C@@H]3COP(=O)(S)O[C@@H]1[C@@H]2O (single isomer, unassigned) [Example 1-2]"
  log10 IC50: 0.23
- compound: "C#C[C@@H]1O[C@@H]2COP(=O)(S)O[C@H]3[C@@H](F)[C@H](n4cnc5c(N)ncnc54)O[C@@H]3COP(=O)(S)O[C@@H]1[C@@H]2O (single isomer, unassigned) [Example 1-1]"
  log10 IC50: 0.15
- compound: "Nc1ncnc2c1ncn2[C@@H]1O[C@@H]2COP(O)(=S)O[C@@H]3[C@H](O)[C@@H](COP(O)(=S)O[C@H]2[C@H]1F)O[C@H]3C#Cc1cccnc1 (single isomer, unassigned) [Example 3-3]"
  log10 IC50: 0.04
- compound: "Nc1ncnc2c1ncn2[C@@H]1O[C@@H]2COP(O)(=S)O[C@@H]3[C@H](O)[C@@H](COP(O)(=S)O[C@H]2[C@H]1F)O[C@H]3C#Cc1cccnc1 (single isomer, unassigned) [Example 3-1]"
  log10 IC50: 1.83

----------
- testedTarget: STING AQ: His-TVMV-S-hSTING(155-341)-G230A-R293Q (Homo sapiens, UniProt Q86WV6, G230A/H232R/R293Q)
- Construct: His-TVMV-S-hSTING(155-341)-G230A-R293Q
- Sequence (Q86WV6 with tags, fused parts or gaps G230A/H232R/R293Q): as the sequence (Q86WV6 with tags, fused parts or gaps H232R) above, with G99A, R162Q counted along it
- testDetails: STING HTRF binding assay, STING AQ
- assayConditions: 20 nM His-tagged STING cytoplasmic domain, 40 nM fluorescein-labeled cGAMP analog probe, one hour; read-out: HTRF Binding Assays IC50 (μM) STING AQ
endpointName: IC50 (µM)

- compound: "Nc1ncnc2c1ncn2[C@@H]1O[C@@H]2COP(O)(=S)O[C@@H]3[C@H](O)[C@@H](COP(O)(=S)O[C@H]2[C@H]1F)O[C@H]3C#Cc1ccccc1 (single isomer, unassigned) [Example 2-4]"
  assayResult: 17
- compound: "Nc1ncnc2c1ncn2[C@@H]1O[C@@H]2COP(O)(=S)O[C@@H]3[C@H](O)[C@@H](COP(O)(=S)O[C@H]2[C@H]1F)O[C@H]3C#Cc1ccccc1 (single isomer, unassigned) [Example 2-3]"
  assayResult: 0.7
- compound: "C#C[C@@H]1O[C@@H]2COP(O)(=S)O[C@H]3[C@@H](F)[C@H](n4cnc5c(N)ncnc54)O[C@@H]3COP(O)(=S)O[C@@H]1[C@@H]2O (single isomer, unassigned) [Example 1-3]"
  assayResult: 1.9
